Overview of reported residual activity across a group of compounds:
# measured_target: UniProt Q9HAZ1
# Sequence (Q9HAZ1 whole entry, looked up): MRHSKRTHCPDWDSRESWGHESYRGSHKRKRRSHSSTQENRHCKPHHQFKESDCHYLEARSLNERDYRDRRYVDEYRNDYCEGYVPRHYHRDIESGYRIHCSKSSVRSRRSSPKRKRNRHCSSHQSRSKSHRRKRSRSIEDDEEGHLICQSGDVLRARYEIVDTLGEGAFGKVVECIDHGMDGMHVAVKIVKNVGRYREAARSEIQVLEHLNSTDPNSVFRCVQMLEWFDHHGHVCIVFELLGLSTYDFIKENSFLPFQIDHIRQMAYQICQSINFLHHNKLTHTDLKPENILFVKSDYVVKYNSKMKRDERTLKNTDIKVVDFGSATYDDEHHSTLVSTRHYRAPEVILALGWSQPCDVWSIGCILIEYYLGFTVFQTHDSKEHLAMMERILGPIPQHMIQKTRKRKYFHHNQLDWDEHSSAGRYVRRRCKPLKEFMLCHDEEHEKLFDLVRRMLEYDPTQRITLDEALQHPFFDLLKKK
# measurement_description: radiometric filter-binding kinase assay, Kinase HotSpot
# settings: compound 0.5 µM; ATP 10 µM
Number only, in %; omit the unit.

O=C(O)c1ccc2c3c1cccc3c(=O)n1c3ccccc3nc21 82.8
COc1cc2c(Nc3ccc(Br)cc3F)ncnc2cc1OCC1CCN(C)CC1 84.3
O=c1c(-c2ccc(F)cc2)c(-c2ccncc2)[nH]n1-c1ccc(Cl)cc1 78.9

Exercise: Name the recorded residual activity for Cc1cc(Nc2nc(-c3ccccc3)nc3ccccc23)n[nH]1 .
Solution: 34.3

Exercise: Same question, COc1cccc(-c2cc(=O)c3ccccc3o2)c1N this time
Solution: 86.3
